# Test system: DRAK1
# Construct: gene STK17A
# conditionDetails: concentration: 1 μM, replicates: in singlicate; n = 1;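 note: KINOMEscan kinase panel screen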
Listing of entries alongside the reported %Inh.
propertyName: %Inh (%)

chemicalString	unitOfMeasurement	reported
CN(c1ccc(F)c(NC(=O)c2cccc(OC(C)(C)C#N)c2Cl)c1)c1ccc2nc(NC(=O)C3CC3)sc2n1	%	0
Cc1ccc(C)c(NC(=O)Nc2ccc(C)c(-c3ccc(C(=O)Nc4ccncc4)cc3)c2)c1	%	0
COC(=O)Nc1nc2cc(Oc3ccc(NC(=O)Nc4cccc(SC)c4)cc3)ccc2[nH]1.Cl	%	8
CCn1cnc2c(NCc3ccccc3)ncnc21	%	0

* * *

# Tested on: MLCK
# Construct: gene MYLK3
# conditionDetails: concentration: 1 μM, replicates: in singlicate; n = 1
Could you please mark Satisfied for values of %Inh below 2% and Not satisfied for values at or above it?

compound	assignedLabel
CC(C)NCC(Cc1ccccc1)NC(=O)c1cc(Br)c(-c2ccnc3[nH]ccc23)s1.Cl.Cl (stereo not shown)	Not satisfied
Nc1ncnc2scc(-c3ccc(NC(=O)Cc4cc(F)ccc4F)cc3)c12.O=C(O)C(F)(F)F	Not satisfied
Cc1nn2c(=O)cc(N3CCO[C@H](C)C3)nc2n1Cc1cccc(Cl)c1Cl	Satisfied
Nc1ncc(-c2ccc3nccc(-c4ccncc4)c3c2)cc1S(=O)(=O)N1CCCCC1	Satisfied
CN(c1ccc2c(c1)nc(NCc1ccccc1)n2C)c1ccnc(Nc2ccc(CS(C)(=O)=O)cc2)n1.Cl	Satisfied
CCNC(=O)/C=C/c1n[nH]c2cc(Sc3ccccc3C(=O)NC)ccc12	Satisfied
NCCC(NC(=O)c1cc(Br)c(-c2ccnc3[nH]ccc23)s1)c1ccccc1.O=C(O)C(F)(F)F.O=C(O)C(F)(F)F (stereo not shown)	Not satisfied
COc1cccc(C2=C(Nc3cccc(O)c3)C(=O)NC2=O)c1	Satisfied
CNc1nccc(-c2ccc3c(N)n[nH]c3c2)n1	Not satisfied
Cl.O=C(Nc1ccc(Oc2ccc3[nH]c(NC(=O)c4ccco4)nc3c2)cc1)Nc1cc(C(F)(F)F)ccc1F	Not satisfied
CS(=O)(=O)c1cccc(CNc2nc(Nc3ccc4c(c3)CCC(=O)N4)ncc2C(F)(F)F)c1	Satisfied
c1ccc(Oc2ccc(Nc3ccnc4cc(-c5ccc(CN6CCCCC6)o5)ccc34)cc2)nc1	Satisfied
CC(C)(C)c1ccc(C(=O)Nc2cn3cc(-n4ccnc4)ccc3n2)cc1	Not satisfied
COc1cccc(NC(=O)NCCNc2ccnc(Nc3ccc(F)cc3)n2)c1	Satisfied
CCn1c(-c2nonc2N)nc2c(-c3ccccc3)ncc(OCCCN)c21.O=C(O)C(F)(F)F.O=C(O)C(F)(F)F	Not satisfied
CCNc1nccc(-c2c(-c3ccc(F)cc3)ncn2C2CCN(C)CC2)n1	Satisfied
CN(c1ccc(NC(=O)Nc2cccc(Cl)c2)cc1)c1ccnc(N)n1.Cl	Not satisfied
O=C(O)C(F)(F)F.O=c1[nH]ccc2nc(N[C@@H]3CCNC3)nc(Nc3cc(Cl)cc(Cl)c3)c12	Not satisfied
Cn1cc(-c2ccc3c(c2)CCN3C(=O)Cc2cc(F)cc(C(F)(F)F)c2)c2c(N)ncnc21	Satisfied
Cc1ccc(O)cc1Nc1ccnc2cc(-c3ccc(CN4CCCCC4)o3)ccc12	Satisfied
Cc1cccc(Nc2nc(NCCN)ncc2C(N)=O)c1	Not satisfied
Nc1ncc(-c2cn[nH]c2)c2scc(-c3ccc4c(c3)CCN4C(=O)Cc3ccccc3)c12	Not satisfied
COc1cc(Nc2nccc(N3CCC(NS(=O)(=O)c4ccc(NC(C)=O)cc4)CC3)n2)cc(OC)c1OC	Satisfied
Cc1cc(-c2ccnc(Nc3cccc(C#N)c3)n2)cc(C)c1O	Not satisfied
Cc1ccc(O)cc1Nc1ccnc2ccc(C(C)(C)C)cc12	Not satisfied
Cc1ccc(NC(=O)c2cccc(N3CCCCC3)c2)cc1-c1ccc(C(=O)NCC2CC2)cc1	Satisfied
COC(=O)Nc1nc2ccc(Oc3ccc(NC(=O)Nc4cc(C(F)(F)F)ccc4F)cc3)cc2[nH]1.Cl	Satisfied
COc1cccc(CC(=O)N2CCc3cc(-c4cn(C)c5ncnc(N)c45)ccc32)c1	Not satisfied
Cl.Cl.NC(CNC(=O)c1cc(Br)c(-c2ccnc3[nH]ccc23)s1)c1ccccc1 (stereo not shown)	Not satisfied
Cc1ccccc1CC(=O)N1CCc2cc(-c3cn(C)c4ncnc(N)c34)ccc21	Not satisfied
Cc1cc(-c2c(-c3ccc(F)cc3)ncn2CCCN2CCOCC2)nc(N)n1	Satisfied
Fc1cc(Cl)ccc1Nc1ccnc2cc(-c3ccc(CN4CCOCC4)o3)ccc12	Satisfied
COc1ccc(C)c(Nc2ccnc(Nc3ccc(-c4cnc[nH]4)cc3)n2)c1.Cl	Satisfied

Reference for the values: paper PMC5540273
